Target: Tyrosyl-DNA phosphodiesterase 2 (Homo sapiens)
Sequence (O95551 whole entry): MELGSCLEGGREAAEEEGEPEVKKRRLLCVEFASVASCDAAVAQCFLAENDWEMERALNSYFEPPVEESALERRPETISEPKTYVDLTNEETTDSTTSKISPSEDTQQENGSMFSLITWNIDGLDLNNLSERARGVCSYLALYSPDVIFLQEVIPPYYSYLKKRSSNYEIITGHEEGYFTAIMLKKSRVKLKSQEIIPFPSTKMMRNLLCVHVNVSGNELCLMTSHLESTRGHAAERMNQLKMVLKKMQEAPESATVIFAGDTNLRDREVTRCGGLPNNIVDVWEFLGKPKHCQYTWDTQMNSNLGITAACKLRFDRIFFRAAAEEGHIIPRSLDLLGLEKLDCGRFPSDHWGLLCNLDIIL
Assay: Inhibition of human TDP2 expressed in DT40 cells (TDP2-knockout) using 18-mer single stranded oligonucleotide DNA as substrate incubated for 15 mins by PAGE assay
assay_endpoint: IC50 (µM)

O=C1Cc2cc(C(F)(F)F)ccc2C(=O)N1: 3.5

P = O=C1Cc2ccc(-c3cccc(Cl)c3)cc2C(=O)N1
Q = CS(=O)(=O)Nc1ccc(-c2ccc3c(c2)CC(=O)NC3=O)cc1
R = O=C1Cc2ccc(-c3ccco3)cc2C(=O)N1
Arrange by IC50, high to low. Use the labels to give the requested order. R, P, Q

Measured values drawn from ChEMBL document CHEMBL3792345 for this set.
